Target: T1, IFF07399
T1 chain: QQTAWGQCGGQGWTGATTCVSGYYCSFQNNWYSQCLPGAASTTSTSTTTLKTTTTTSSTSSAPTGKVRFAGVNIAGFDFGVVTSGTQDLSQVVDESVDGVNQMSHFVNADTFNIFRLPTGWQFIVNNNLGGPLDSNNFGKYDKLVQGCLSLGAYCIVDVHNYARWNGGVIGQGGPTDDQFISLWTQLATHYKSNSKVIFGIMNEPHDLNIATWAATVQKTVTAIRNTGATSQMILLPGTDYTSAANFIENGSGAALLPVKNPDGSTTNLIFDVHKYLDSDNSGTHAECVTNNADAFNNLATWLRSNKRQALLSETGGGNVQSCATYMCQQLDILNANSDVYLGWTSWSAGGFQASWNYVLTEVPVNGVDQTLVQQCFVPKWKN
QUANTITY MEASURED: Gel mobility change (SDS-PAGE)

IFF21374 (protein) QRLNKPALTPNLDYLEQGNIDNLHPTHSTWDKWGPGWIPADCKSIAQNEGKNPDDFEIYNVHYDDCSDAWVFCRHKDSNVDLVTTIDIFGRLPVKMRSWVRHVITIPGDSWAYNSNGNIAFFGTTSSSMDVAIHETGHSLDLLGAYWGKTFSDSSTWLDNYNQDPNVPDEYAQTNQVENVAQNTVVGVYDKVVPGGFGSVQPNWHNIFHQYATLQWGAGDQIIPGGTCDRHLQNSETVPTGNSALAFNAVNRPDTSLKGNYSNIVTDFKEFSTRGNCRI	yes
